GI50 reference
system: A549; assay: NCI tumour cell line growth inhibition, 48 h
Active and inactive are the calls of the source. Rule as the data show it: active = GI50 up to about 1.1 µM and inactive = higher. Where a SMILES comes first, the peptide text is derived from it. [ ]: non-standard residue; d: D form. Phe(F5) = N[CH](Cc1c(F)c(F)c(F)c(F)c1F)C(=O)O
Value type: GI50

[[record]]
molecule = "COC1OC(COCc2ccc(Cl)cc2)C(OCc2ccc(Cl)cc2)C1O (centres undefined)"
result = "17.3 µM (inactive)"

[[record]]
molecule = "Sc1cnnc2ccc(Br)cc12"
result = "36.1 µM (inactive)"

[[record]]
molecule = "CN1CCOC1(C)c1ccccc1 (centres undefined)"
result = "> 100 µM (inactive)"

[[record]]
molecule = "COc1cc(C(N)=O)cc(NC(=O)/C=C/c2ccccc2)c1OC"
result = "> 100 µM (inactive)"

[[record]]
molecule = "Oc1nncc2[nH]c(-c3ccccc3)cc12"
result = "49.3 µM (inactive)"

[[record]]
molecule = "O=C(O)c1cccc(/[As]=[As]\\c2cccc(C(=O)O)c2)c1 (centres undefined)"
result = "> 100 µM (inactive)"

[[record]]
molecule = "CCCCCCCCCCCCOP(=O)(O)OP(=O)(O)OCC1OC(n2cc(C)c(=O)[nH]c2=O)CC1O (centres undefined)"
result = "> 100 µM (inactive)"

[[record]]
molecule = "O=C(CC(O)(c1ccccc1)c1ccc(Cl)cc1)NC(=O)c1ccccc1O (centres undefined)"
result = "8.07 µM (inactive)"

[[record]]
molecule = "COc1ccc(C(=C2C(=O)N(c3ccccc3)C(=O)C2=C(C)C)c2ccc(OC)cc2)cc1"
result = "5.21 µM (inactive)"

[[record]]
molecule = "COc1ccc(C2(CC(C)C)CCNC2)cc1OC (centres undefined)"
result = "> 100 µM (inactive)"

[[record]]
molecule = "COC(=O)C1C(O)C(C)C(O)C(C)(O)/C=C\\C=C(C)C(=O)Nc2c(C)c(OC(C)=O)c3c(c2O)C(=O)C(C)=C2OCOC(=C23)C(C)=CC(C)(O)C(O)C(C)C1OC(C)=O (centres undefined)"
result = "> 100 µM (inactive)"

[[record]]
molecule = "CC(NNC(=O)c1ccncc1)c1ccc(Cl)cc1Cl (centres undefined)"
result = "> 100 µM (inactive)"

[[record]]
molecule = "C=CC[C@H]1[C@@H](O[Si](C)(C)C(C)(C)C)[C@H](n2ccc(=O)[nH]c2=O)O[C@@H]1CO[Si](C)(C)C(C)(C)C"
result = "1.85 µM (inactive)"

[[record]]
molecule = "COC(=O)C(CC(C)C)NC(=O)C(Cc1c[nH]cn1)NC(=O)CNC(=O)C(NC(=O)C(C)NC(=O)C(Cc1c[nH]c2ccccc12)NC(=O)C(CCC(=O)O)NC(=O)C(N)Cc1c(F)c(F)c(F)c(F)c1F)C(C)C (centres undefined) (H-[Phe(F5)]EWAVGHL-OMe; configuration not given here)"
result = "> 12.5 µM (inactive)"

